Tested on: CIT
condition.notes: concentration: 1 μM, replicates: in singlicate; n = 1;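 note: KINOMEscan kinase panel screen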
# %Inh listing for each entry below

Worked set:
[2H]C([2H])(c1cccc(C(F)(F)F)c1C)n1ccn2c(=O)nc(N3CCOCC3)cc12 ... 11%
N#Cc1c(N2CCOCC2)sc(-c2ccn[nH]2)c1-c1ccc(Cl)cc1 ... 24%
Cc1nnc(-c2ccc3ncc(-c4ccc(S(C)=O)cc4)n3c2)o1 (stereo not shown) ... 38%

// moving on: another record for %Inh
Ask: Note down %Inh recorded for `O=C(NCCNc1ccnc(Nc2ccc(F)cc2)n1)Nc1ccccc1F`
Result: 47%

* * *

System: CDK8
condition.notes: concentration: 1 μM, replicates: in singlicate; n = 1
test.readout: %Inh (%)
Numbers only; they are read as %.

Worked set:
[2H]C([2H])(c1cccc(C(F)(F)F)c1C)n1ccn2c(=O)nc(N3CCOCC3)cc12 ... 2
CC(C)(C)n1cnc2c(N)ncnc21 ... 66

// moving on: another record for %Inh
Ask: Note down %Inh recorded for `Cc1cccc(-c2nc(Nc3ccc4ncsc4c3)c3ccccc3n2)n1`
Result: 43
